Experiment: DLS size of dendrimersomes assembled from glycerol-JDs in water at different concentrations
Format: physicochemical
Conditions: JD 0.25 mg·mL−1 in water; size distribution by intensity
Value Type: Dh (nm)
State just the number; it will be interpreted in nm.

Solved cases (2 shown):
- Compound: "CCCCCCCCCCCCOc1cc(OCCCCCCCCCCCC)cc(C(=O)OCC(C)(COC(=O)c2cc(OCCCCCCCCCCCC)cc(OCCCCCCCCCCCC)c2)C(=O)OC[C@H](COC(=O)c2cc(OCCOCCOCCOC)c(OCCOCCOCCOC)c(OCCOCCOCCOC)c2)OC(=O)c2cc(OCCOCCOCCOC)c(OCCOCCOCCOC)c(OCCOCCOCCOC)c2)c1 [Compound 2S, (3,5)-12G1-BMPA-GC-(S)-(3,4,5)-3EO-G1]"
  Numeric Readout: 132
- Compound: "CCCCCCCCCCCCOc1cc(OCCCCCCCCCCCC)cc(C(=O)OCC(C)(COC(=O)c2cc(OCCCCCCCCCCCC)cc(OCCCCCCCCCCCC)c2)C(=O)OC[C@@H](COC(=O)c2cc(OCCOCCOCCOC)c(OCCOCCOCCOC)c(OCCOCCOCCOC)c2)OC(=O)c2cc(OCCOCCOCCOC)c(OCCOCCOCCOC)c(OCCOCCOCCOC)c2)c1 [Compound 2R, (3,5)-12G1-BMPA-GC-(R)-(3,4,5)-3EO-G1]"
  Numeric Readout: 139

Switching to the query record.
Task item: # input compound: CCCCCCCCCCCCOc1cc(OCCCCCCCCCCCC)cc(C(=O)OCC(COC(=O)c2cc(OCCCCCCCCCCCC)cc(OCCCCCCCCCCCC)c2)OC(=O)C(C)(COC(=O)c2cc(OCCOCCOCCOC)c(OCCOCCOCCOC)c(OCCOCCOCCOC)c2)COC(=O)c2cc(OCCOCCOCCOC)c(OCCOCCOCCOC)c(OCCOCCOCCOC)c2)c1 ; wanted: its Dh (nm)
Reply: 144
